method: Boiling temperature at pressure P
setup.conditions: 3.47 kPa; Liquid; DSC
# Boiling temperature at pressure P listing for each entry below
The reply should be a number in °C, with the unit left off.

Sample answers from the record:
{"molecule": "CCCCCCCCCCCCCCCCCCO [1-octadecanol]", "recorded.value": 225.89}
{"molecule": "CCCCCCCC(=O)O [octanoic acid]", "recorded.value": 144.04}
{"molecule": "CCCCCCCC(=O)OCC(O)CO (configuration not stated) [2,3-dihydroxypropyl octanoate]", "recorded.value": 211.90}
{"molecule": "CCCCCCCCCCCCCCCC [hexadecane]", "recorded.value": 170.91}
{"molecule": "CCCCCCCCCCCCCCCCCC [octadecane]", "recorded.value": 196.81}

Ask: Record request: Boiling temperature at pressure P value, item CCCC(=O)OCC(COC(=O)CCC)OC(=O)CCC [1,2,3-propanetriyl tributanoate]
Result: 201.40

Ask: What Boiling temperature at pressure P value was documented for this molecule, OCC(O)CO [glycerol] ?
Result: 186.13
